# U251 CNS: GI50 values follow

# annotated cases, reported GI50 shown
SMILES STR: NS(=O)(=O)c1ccc(/C=C/c2ccc(O)cc2)cc1
METRIC NAME: GI50
TEST VALUE: 15 µM
--
SMILES STR: COc1ccc(/C=C(\C(=O)NCc2cccnc2)S(=O)(=O)c2ccccc2)cc1OC
METRIC NAME: GI50
TEST VALUE: 3.09 µM
--
SMILES STR: COC(=O)c1cc2ccccc2c2c3c(ccc12)OCO3
METRIC NAME: GI50
TEST VALUE: 79.2 µM

List reported GI50 for each of these compounds:
1. Nc1ccccc1C#C/C=C\C#Cc1cccc(O)c1
2. Nc1ncnc2c1c(-c1ccc(Oc3ccccc3)cc1)nn2C[C@@H]1SSC[C@H]1O

Response:
1. 4.09 µM
2. 2.48 µM

====

Test system: SW-620 colon
ASSAY OVERVIEW: NCI tumour cell line growth inhibition, 48 h
Hi there, I'd appreciate the recorded TGI for every entry that follows.

MOLECULE: COc1cccc(NC(=O)CC(=O)N2N=C(N3c4ccccc4Sc4ccccc43)CC2c2ccccc2)c1 (stereo unspecified)
METRIC NAME: TGI
TEST VALUE: > 100 µM
--
MOLECULE: [O-]c1ccccc1/C=N/C(/N=C/c1ccccc1[O-])c1ccccc1O.[O-]c1ccccc1/C=N/C(/N=C/c1ccccc1[O-])c1ccccc1O.[Zr+4]
METRIC NAME: TGI
TEST VALUE: > 100 µM
--
MOLECULE: COC(=O)Nc1nc2ccc(Oc3cccc(NC(=O)Nc4cc(C(F)(F)F)ccc4F)c3)cc2[nH]1
METRIC NAME: TGI
TEST VALUE: > 25 µM
--
MOLECULE: O=C(c1ccc(Cl)cc1)N(C(=S)OCCOc1ccccc1)c1ccccc1
METRIC NAME: TGI
TEST VALUE: 41.2 µM
--
MOLECULE: C[C@]12CC[C@@H]3c4ccc(O)cc4CC[C@H]3[C@@H]1Cc1cnc(N)nc12
METRIC NAME: TGI
TEST VALUE: 45.9 µM
--
MOLECULE: CCOC(=O)c1nnc2c(C#N)c(-c3ccccc3)c(C)n2c1N
METRIC NAME: TGI
TEST VALUE: > 100 µM
--
MOLECULE: CCCCCCCCCCCCCCCCCCOCC(O)COP(=O)(O)OCC1OC(n2ccc(N)nc2=O)C(O)C1O (stereo unspecified)
METRIC NAME: TGI
TEST VALUE: > 100 µM
--
MOLECULE: Cc1ccc(N(C)S(=O)(=O)c2ccccc2[N+](=O)[O-])cc1
METRIC NAME: TGI
TEST VALUE: > 100 µM

Parameter requested: TGI. Apply to each item below.
1. O=C1NOC(c2ccc(O)cc2)(c2ccc(O)cc2)c2ccccc21
2. COc1ccc(/C=C2\C[C@H]3[C@@H]4CCC5=CC(=O)CC[C@]5(C)[C@H]4CC[C@]3(C)C2=O)cc1OC
3. O=C(NNC(=O)c1csc(NC(=S)NC2CCCCC2)n1)c1ccccc1
4. CC(=O)Nc1cccc(N=NN(C)C)c1
5. NC(=O)c1ccc(-c2nc(-c3ccc4c(c3)OCO4)c(-c3ccccn3)[nH]2)cc1
6. Cc1cnc(CNC(=O)c2c(=O)c3ccc(N4CCCN(C)CC4)nc3n3c2sc2ccccc23)cn1

Response:
1: > 100 µM; 2: > 100 µM; 3: 29.5 µM; 4: > 100 µM; 5: > 100 µM; 6: 3.9 µM

For every record below, what is its TGI?
1. O=C1c2ccccc2N2Oc3ccccc3C12c1ccccc1 (stereo unspecified)
2. NS(=O)(=O)c1ccc(/C=C/c2ccc(O)cc2)cc1

Response:
> 100 µM
> 100 µM

Below are 4 molecules. Give each one its TGI.
1. Cc1ccc2c(/C=C/c3ccc(N(C)C)cc3)ccc(C(C)C)cc1-2
2. CCOC(=O)NN(C(=O)OCC)c1c(C)cc(C)cc1C
3. Cc1[nH]c(=O)nc(NNCc2ccc(Cl)cc2)c1C(=O)Nc1ccc(Cl)cc1
4. O=C(OCCNC(=O)N1CC1)OCCNC(=O)N1CC1

Response:
1. > 100 µM
2. > 100 µM
3. > 100 µM
4. > 10 µM

Prompt: Any idea what its TGI is? The molecule is O=c1oc2c(Cl)cc(Cl)cc2cc1C1=CSC2=NCCN12
Response: > 100 µM

====

Please respond with reported TGI for every item in the list.
Test system: RXF 393 renal
ASSAY OVERVIEW: NCI tumour cell line growth inhibition, 48 h

COMPOUND: O=C1C(c2cnc3ccccc3n2)=C(O)c2ccccc21
TEST VALUE: 36.1 µM
--
COMPOUND: Oc1c(Cl)c(Cl)c(O)c2c1CCCC2
TEST VALUE: 22.5 µM
--
COMPOUND: COc1ccc(-c2c(C#N)c(S)n(NS(=O)(=O)c3ccccc3)c(=O)c2C#N)cc1
TEST VALUE: > 100 µM
--
COMPOUND: COc1ccc(C2=CC(c3ccc(OC)cc3Br)N3C=CSC3=N2)cc1 (stereo unspecified)
TEST VALUE: 22 µM
--
COMPOUND: O=C(N/N=C/c1ccccc1)c1cccc2nc3ccccc3nc12
TEST VALUE: > 100 µM
--
COMPOUND: c1ccc(CSC2(SCc3ccccc3)CCCCC2)cc1
TEST VALUE: > 10 µM
--
COMPOUND: COc1cccc(NC(=O)CC(=O)N2N=C(n3ccc4ccccc43)CC2c2ccccc2)c1 (stereo unspecified)
TEST VALUE: > 100 µM
--
COMPOUND: CCOC(=O)c1cc2c(n1Cc1cc(OC)c(OC)c(OC)c1)-c1oncc1CCC2
TEST VALUE: > 100 µM

Below is a list of compounds. For each, state its recorded TGI.
1. CCOC(=O)NN(C(=O)OCC)c1c(C)cc(C)cc1C
2. COc1cccc(NC(=O)CC(=O)N2N=C(N3c4ccccc4Sc4ccccc43)CC2c2ccccc2)c1 (stereo unspecified)
3. Cc1ccc(N(C)S(=O)(=O)c2ccccc2[N+](=O)[O-])cc1

Response:
["> 100 µM", "> 100 µM", "> 100 µM"]

====

Test system: HCT-116 colon
ASSAY OVERVIEW: NCI tumour cell line growth inhibition, 48 h
METRIC NAME: GI50

MOLECULE: Cc1[nH]c(=O)nc(Nc2ccc(Cl)cc2)c1C(=O)N1CCN(CCO)CC1
TEST VALUE: 81.9 µM
//
MOLECULE: COc1cnc2c(c1)C(=O)c1c-2n(CCCNC2=NCCS2)c(=O)c2cc(Cl)ccc12
TEST VALUE: 0.352 µM
//
MOLECULE: C=C1CC[C@@H]2[C@](C)(COC(C)=O)[C@H](OC(C)=O)CC[C@@]2(C)[C@@H]1CC(Nc1ccc(S(=O)(=O)Nc2ccc(Cl)nn2)cc1)C1=CCOC1=O (stereo partly drawn)
TEST VALUE: 1.08 µM
//
MOLECULE: CC(=O)O[C@H]1CCC2[C@@H]3CCC4c5nonc5CC[C@]4(C)C3CC[C@@]21C (stereo partly drawn)
TEST VALUE: > 100 µM
//
MOLECULE: Nc1ccccc1C#C/C=C\C#Cc1cccc(O)c1
TEST VALUE: 2.73 µM

Working through the 2 molecules below one at a time, give GI50 for each.
1. COc1ccc(C(=O)/C=C/c2cccc(Nc3ccnc4cc(Cl)ccc34)c2)cc1
2. Cc1cnc(CNC(=O)c2c(=O)c3ccc(N4CCCN(C)CC4)nc3n3c2sc2ccccc23)cn1

Response:
0.844 µM
0.806 µM

Prompt: Give its GI50 value. Item: [O-]c1ccccc1/C=N/C(/N=C/c1ccccc1[O-])c1ccccc1O.[O-]c1ccccc1/C=N/C(/N=C/c1ccccc1[O-])c1ccccc1O.[Zr+4]
Response: 40.8 µM

====

System: UACC-62 melanoma
ASSAY OVERVIEW: NCI tumour cell line growth inhibition, 48 h; in the data active means GI50 below about 0.43 µM; inactive means the rest
Your response should consist of one outcome taken from active, inactive

Below, 6 molecules whose answers are already recorded.
SMILES STR: Nc1ccccc1C#C/C=C\C#Cc1cccc(O)c1
DISCRETE LABEL: inactive

SMILES STR: O=C(Nc1ccc(Oc2cccc(F)c2)c(Cl)c1)c1cnccn1
DISCRETE LABEL: inactive

SMILES STR: COC(=O)c1cc2ccccc2c2c3c(ccc12)OCO3
DISCRETE LABEL: inactive

SMILES STR: COc1ccccc1CNCCCN1C(=O)c2ccc3c4c(ccc(c24)C1=O)C(=O)N(CCCN)C3=O
DISCRETE LABEL: active

SMILES STR: NCCN.O=C([O-])CN1CCOCC1.[OH-].[Pt+4]
DISCRETE LABEL: inactive

SMILES STR: COc1cc(/C=C/C(=O)c2ccc(F)cc2)ccc1OCCCN1CCN(CC(=O)Nc2ccc(Cl)cc2C(=O)c2ccccc2Cl)CC1
DISCRETE LABEL: inactive

Prompt: What classification did CCOC(=O)c1cc2c(n1Cc1cc(OC)c(OC)c(OC)c1)-c1oncc1CCC2 end up with in this test?
Response: active

Prompt: Try Nc1c(C(=O)c2cccc(C#CCO)c2)cnn1-c1ccc(F)cc1 next.
Response: inactive

Prompt: What about this molecule? O=C1c2ccc3c4c(ccc(c24)C(=O)N1CCCNCc1ccccc1Cl)C(=O)N(CCCNCc1ccccc1Cl)C3=O
Response: inactive

Prompt: Also need COc1cc([N+](=O)[O-])c(OC)cc1-c1nc2sccn2c1/C=N/N=C(N)N , thanks.
Response: inactive

Prompt: // repeat for C#CCNCCN1C(=O)c2ccc3c4c(ccc(c24)C1=O)C(=O)N(CCNCC#C)C3=O and report
Response: inactive

Prompt: Item: COc1ccc(N(/C=C/C(=O)C(F)(F)F)CC(=O)c2ccc(F)cc2)cc1
Response: inactive
